Taken from ChEMBL document CHEMBL3739328.

log10 IC50 tested on Alpha-1A adrenergic receptor (Homo sapiens, UniProt P35348): recorded values
Sequence (P35348 whole entry): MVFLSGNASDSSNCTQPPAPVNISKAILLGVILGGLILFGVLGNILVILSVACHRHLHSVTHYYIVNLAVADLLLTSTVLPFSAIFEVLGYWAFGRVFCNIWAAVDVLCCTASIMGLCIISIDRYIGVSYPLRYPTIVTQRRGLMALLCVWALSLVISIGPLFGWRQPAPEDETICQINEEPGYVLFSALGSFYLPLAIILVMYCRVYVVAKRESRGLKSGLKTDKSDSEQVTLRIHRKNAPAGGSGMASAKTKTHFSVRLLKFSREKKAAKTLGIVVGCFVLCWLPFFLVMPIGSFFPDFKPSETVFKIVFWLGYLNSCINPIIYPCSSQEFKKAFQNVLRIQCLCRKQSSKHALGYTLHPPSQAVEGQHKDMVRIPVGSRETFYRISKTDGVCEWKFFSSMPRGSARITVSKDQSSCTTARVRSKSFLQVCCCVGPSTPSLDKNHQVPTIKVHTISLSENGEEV
Measurement Kind: log10 IC50 (log10 of the value in nM)

> print(dat)
                              smiles.string  measurement.kind  value.reported
1  O=C1c2ccccc2C(=O)N1Cc1ccc(CCN2CCN(c3ccccc3C(F)(F)F)CC2)cc1        log10 IC50            2.58
2  O=C1c2ccccc2C(=O)N1Cc1ccc(CCN2CCN(c3ccccc3)CC2)cc1        log10 IC50            2.18
3  CS(=O)(=O)c1ccccc1N1CCN(CCc2ccc(CN3C(=O)c4ccccc4C3=O)cc2)CC1        log10 IC50            1.67
4  COc1ccc(N2CCN(CCc3ccc(CN4C(=O)c5ccccc5C4=O)cc3)CC2)cc1        log10 IC50            2.95
5  O=C1c2ccccc2C(=O)N1Cc1ccc(CCN2CCN(c3ccc(F)cc3F)CC2)cc1        log10 IC50            1.95
